target_desc: Recombinant human Mat2a (Homo sapiens, UniProt P31153)
Sequence (P31153 whole entry): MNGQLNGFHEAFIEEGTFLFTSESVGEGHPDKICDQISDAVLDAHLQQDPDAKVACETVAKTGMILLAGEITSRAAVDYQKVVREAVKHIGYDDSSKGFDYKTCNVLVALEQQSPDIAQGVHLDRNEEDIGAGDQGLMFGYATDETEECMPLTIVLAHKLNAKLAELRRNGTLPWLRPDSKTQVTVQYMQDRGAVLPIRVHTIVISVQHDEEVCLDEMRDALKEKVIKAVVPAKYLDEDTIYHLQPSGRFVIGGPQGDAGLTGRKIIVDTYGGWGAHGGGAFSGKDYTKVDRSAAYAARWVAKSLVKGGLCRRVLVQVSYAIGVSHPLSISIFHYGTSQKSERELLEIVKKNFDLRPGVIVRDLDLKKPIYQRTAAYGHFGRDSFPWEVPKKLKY
experiment_summary: Determination of Mat2A activity (384 well absorbance-based assay, Biomol Green)
experimental_parameters: 12.5 nM Mat2A, 100 μM ATP and Methionine, 2% DMSO, 120 minutes at RT, absorbance at 635 nm
test_readout: IC50

Record excerpt, results attached:
INSERT INTO results (compound, test_readout, recorded_value) VALUES
  ('Cc1c(F)cccc1-n1c(=O)nc(N)c2ccc(C3CC3)nc21 [Example 25]', 'IC50', '< 13 nM'),
  ('Cc1ccncc1-n1c(=O)nc(N)c2ccc(C3CC3)nc21', 'IC50', '< 13 nM'),
  ('Cc1ncccc1-n1c(=O)nc(N)c2ccc([C@H]3C[C@@H]3F)nc21 (racemic)', 'IC50', '< 13 nM'),
  ('Nc1nc(=O)n(-c2cccc(Cl)c2F)c2nc(C3CC3)ccc12', 'IC50', '< 13 nM'),
  ('Cc1ccccc1-n1c(=O)nc(N)c2ccc(C3CC3)cc21', 'IC50', '< 13 nM');

Problem: Identify IC50 associated with the compound Cc1ccccc1-n1c(=O)nc(N)c2ccc(OC(F)F)nc21
Result: < 13 nM

Problem: Identify IC50 associated with the compound Nc1nc(=O)n(C2CCCOC23CC3)c2nc(C3CC3)ccc12 (stereo not drawn)
Result: < 13 nM

Problem: Identify IC50 associated with the compound Cc1ccccc1-n1c(=O)nc(N)c2c(C#N)cc(C3CC3)nc21
Result: 22 nM

Problem: Identify IC50 associated with the compound Nc1nc(=O)n(-c2cccc3[nH]ccc23)c2nc(C3CC3)ccc12
Result: < 13 nM

Problem: Identify IC50 associated with the compound Cc1ccccc1-n1c(=O)nc(N)c2ccc(C(C)(C)C)nc21
Result: 22 nM

Problem: Identify IC50 associated with the compound Nc1nc(=O)n(-c2cccc(F)c2)c2nc(C3CC3)ccc12
Result: < 13 nM

Problem: Identify IC50 associated with the compound Nc1nc(=O)n(C2COCCOC2)c2nc(C3CC3)ccc12
Result: 25 nM

###

Quick reference for IC50 among some molecules
target_desc: Recombinant human Mat2a (Homo sapiens)
experiment_summary: Determination of Mat2A activity (384 well absorbance-based assay, Biomol Green)
Assay type: biochemical
experimental_parameters: 12.5 nM Mat2A, 100 μM ATP and Methionine, 2% DMSO, 120 minutes at RT, absorbance at 635 nm

INSERT INTO assay_data (molecule, target_desc, test_readout, recorded_value) VALUES
  ('Cc1ncsc1-n1c(=O)nc(N)c2ccc(C3CC3)nc21', 'Recombinant human Mat2a (Homo sapiens)', 'IC50', '< 13 nM'),
  ('Nc1nc(=O)n(-c2c(F)cccc2F)c2nc(C3CC3)ccc12', 'Recombinant human Mat2a (Homo sapiens)', 'IC50', '< 13 nM'),
  ('COc1ccc2c(N)nc(=O)n(-c3cccnc3C)c2c1', 'Recombinant human Mat2a (Homo sapiens)', 'IC50', '< 13 nM'),
  ('Cn1nccc1-n1c(=O)nc(N)c2ccc(C3CC3)nc21', 'Recombinant human Mat2a (Homo sapiens)', 'IC50', '< 13 nM'),
  ('Cc1ncccc1-n1c(=O)nc(N)c2ccc(C3CCCC3)nc21', 'Recombinant human Mat2a (Homo sapiens)', 'IC50', '< 13 nM'),
  ('Nc1nc(=O)n(-c2cccc(Cl)c2Cl)c2nc(C3CC3)ccc12', 'Recombinant human Mat2a (Homo sapiens)', 'IC50', '< 13 nM'),
  ('CC1COCC1n1c(=O)nc(N)c2ccc(C3CC3)nc21 (stereo not shown)', 'Recombinant human Mat2a (Homo sapiens)', 'IC50', '57 nM'),
  ('Cc1c(F)cccc1-n1c(=O)nc(N)c2ccc(C(F)(F)F)nc21', 'Recombinant human Mat2a (Homo sapiens)', 'IC50', '< 13 nM');

Problem: Identify IC50 associated with the molecule Cc1ncccc1-n1c(=O)nc(N)c2ccc(C3COC3)cc21
Result: 21 nM

Problem: Identify IC50 associated with the molecule Cc1ccccc1-n1c(=O)nc(N)c2ccc(C3CC3)nc21
Result: < 13 nM

Problem: Identify IC50 associated with the molecule Nc1nc(=O)n(-c2cc(F)cc(F)c2)c2nc(C3CC3)ccc12
Result: 66 nM

Hey, just so you know, these numbers are from patent US20230227449A1.
